The following molecules are shown together with reported Activity ((ng of PGE2) (mg of protein)-1) values.
# target_or_test_system: Prostaglandin G/H synthase 2 (Mus musculus) (UniProt Q05769)
# Sequence (Q05769 whole entry): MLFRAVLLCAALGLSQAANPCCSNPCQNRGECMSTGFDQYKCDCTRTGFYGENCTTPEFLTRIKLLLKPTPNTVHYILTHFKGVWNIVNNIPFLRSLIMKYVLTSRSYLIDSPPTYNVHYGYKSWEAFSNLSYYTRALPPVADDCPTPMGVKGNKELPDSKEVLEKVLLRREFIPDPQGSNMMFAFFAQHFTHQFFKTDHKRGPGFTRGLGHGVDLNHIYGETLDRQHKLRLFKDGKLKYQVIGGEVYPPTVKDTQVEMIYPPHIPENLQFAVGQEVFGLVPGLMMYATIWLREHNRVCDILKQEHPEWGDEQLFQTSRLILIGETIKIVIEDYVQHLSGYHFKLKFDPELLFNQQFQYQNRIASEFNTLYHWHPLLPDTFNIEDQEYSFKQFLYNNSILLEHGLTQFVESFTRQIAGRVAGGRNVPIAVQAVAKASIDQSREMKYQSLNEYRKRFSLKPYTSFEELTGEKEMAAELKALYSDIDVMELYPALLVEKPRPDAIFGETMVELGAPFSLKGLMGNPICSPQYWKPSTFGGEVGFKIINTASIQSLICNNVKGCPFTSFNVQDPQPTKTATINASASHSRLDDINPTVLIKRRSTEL
# assay_procedure: In vitro activity at a concentration of 10 uM against Prostaglandin G/H synthase 2
Answer with a number only.

# count of solved cases: 3
>  <item_smiles>
N#Cc1cc2c(nc1N1CCOCC1)sc1c(N3CCNCC3)nnnc12

>  <target_or_test_system>
Prostaglandin G/H synthase 2 (Mus musculus) (UniProt Q05769)

>  <reported_value>
16.5

$$$$
>  <item_smiles>
CC1CCN(c2nc3sc4c(N5CCC(C)CC5)nnnc4c3cc2C#N)CC1

>  <target_or_test_system>
Prostaglandin G/H synthase 2 (Mus musculus) (UniProt Q05769)

>  <reported_value>
13.9

$$$$
>  <item_smiles>
CC(=O)c1ccc(N2CCN(c3nnnc4c3sc3nc(N5CCN(Cc6ccccc6)CC5)c(C#N)cc34)CC2)cc1

>  <target_or_test_system>
Prostaglandin G/H synthase 2 (Mus musculus) (UniProt Q05769)

>  <reported_value>
15.8

$$$$

query: Give me measured Activity ((ng of PGE2) (mg of protein)-1), please, for this molecule: CC1CCN(c2nnnc3c2sc2nc(N4CCOCC4)c(C#N)cc23)CC1
result: 13

query: Give me measured Activity ((ng of PGE2) (mg of protein)-1), please, for this molecule: CC(=O)c1ccc(N2CCN(c3nnnc4c3sc3nc(N5CCOCC5)c(C#N)cc34)CC2)cc1
result: 16.6

query: Give me measured Activity ((ng of PGE2) (mg of protein)-1), please, for this molecule: CC(=O)c1ccc(N2CCN(c3nnnc4c3sc3nc(N5CCC(C)CC5)c(C#N)cc34)CC2)cc1
result: 14.3

query: Give me measured Activity ((ng of PGE2) (mg of protein)-1), please, for this molecule: CN1CCN(c2nnnc3c2sc2nc(N4CCN(Cc5ccccc5)CC4)c(C#N)cc23)CC1
result: 14.6
